experimental.target: Folylpolyglutamate synthase, mitochondrial (Mus musculus) (UniProt P48760)
Sequence (P48760 whole entry): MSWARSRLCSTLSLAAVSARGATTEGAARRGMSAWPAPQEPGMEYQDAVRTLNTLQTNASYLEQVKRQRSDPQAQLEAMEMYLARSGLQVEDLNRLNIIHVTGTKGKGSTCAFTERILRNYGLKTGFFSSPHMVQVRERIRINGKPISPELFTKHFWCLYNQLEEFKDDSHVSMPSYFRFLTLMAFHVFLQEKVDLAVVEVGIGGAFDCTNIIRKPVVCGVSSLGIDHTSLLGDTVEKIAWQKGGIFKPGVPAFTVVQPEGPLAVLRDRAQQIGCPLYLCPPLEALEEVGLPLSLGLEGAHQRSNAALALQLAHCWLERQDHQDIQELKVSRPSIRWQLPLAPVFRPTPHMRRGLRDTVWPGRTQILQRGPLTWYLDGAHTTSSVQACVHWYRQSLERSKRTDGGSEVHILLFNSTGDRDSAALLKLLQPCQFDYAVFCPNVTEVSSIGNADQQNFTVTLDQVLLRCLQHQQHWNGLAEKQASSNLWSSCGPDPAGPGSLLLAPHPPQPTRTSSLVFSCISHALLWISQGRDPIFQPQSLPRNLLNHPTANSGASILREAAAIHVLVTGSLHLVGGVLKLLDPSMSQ
method: Activity (relative Km ) was evaluated in vitro by purified mouse liver folate polyglutamate synthetase (FPGS).
// reported Relative Km for each item listed
The response must contain the number and no unit.

# annotated cases, reported Relative Km shown
# molecule, experimental.target, Relative Km
measured = [
    ("Nc1nc(N)c2c(n1)NCC(CCc1ccc(C(=O)NC(CCC(=O)O)C(=O)O)cc1)C2 (stereo not given)", "Folylpolyglutamate synthase, mitochondrial (Mus musculus) (UniProt P48760)", 0.23),
    ("Nc1nc(O)c2cc(CCc3ccc(C(=O)N[C@@H](CCC(=O)O)C(=O)O)cc3)cnc2n1", "Folylpolyglutamate synthase, mitochondrial (Mus musculus) (UniProt P48760)", 0.68),
    ("Nc1nc(N)c2nc(CNc3ccc(C(=O)N[C@@H](CCC(=O)O)C(=O)O)cc3)cnc2n1", "Folylpolyglutamate synthase, mitochondrial (Mus musculus) (UniProt P48760)", 0.21),
]

## Task Dear colleague, I am looking for the recorded Relative Km of the following molecule: Nc1nc(O)c2c(n1)NCC(CCc1ccc(C(=O)NC(CCC(=O)O)C(=O)O)cc1)C2 (stereo not given)
## Result 0.05

## Task Lookup Nc1nc(O)c2c(n1)NCC(CNc1ccc(C(=O)N[C@@H](CCC(=O)O)C(=O)O)cc1)N2 (stereo not given in full)
## Result 0.051

* * *

experimental.target: Folylpolyglutamate synthase, mitochondrial (Mus musculus)
method: Activity (relative Vmax) was evaluated in vitro by purified mouse liver folate polyglutamate synthetase (FPGS).
readout: Relative Vmax
Could you keep your reply to the number by itself?

## Task // Relative Vmax lookup, key: Nc1nc(O)c2cc(CCc3ccc(C(=O)N[C@@H](CCC(=O)O)C(=O)O)cc3)cnc2n1
## Result 0.9

## Task Entry to check: Nc1nc(=O)c2nc(CNc3ccc(C(=O)N[C@@H](CCC(=O)O)C(=O)O)cc3)cnc2[nH]1
## Result 1

## Task Same read-out for Nc1nc(N)c2nc(CNc3ccc(C(=O)N[C@@H](CCC(=O)O)C(=O)O)cc3)cnc2n1 ?
## Result 1.5

## Task Request: Nc1nc(N)c2cc(CCc3ccc(C(=O)NC(CCC(=O)O)C(=O)O)cc3)cnc2n1 (configuration not stated)
## Result 0.35

## Task And Nc1nc(N)c2c(n1)NCC(CCc1ccc(C(=O)NC(CCC(=O)O)C(=O)O)cc1)C2 (configuration not stated) ?
## Result 1.61

## Task Param item: Nc1nc(O)c2c(n1)NCC(CNc1ccc(C(=O)N[C@@H](CCC(=O)O)C(=O)O)cc1)N2 (some centres not stated)
## Result 1.31

## Task Would you mind doing Nc1nc(O)c2c(n1)NCC(CCc1ccc(C(=O)NC(CCC(=O)O)C(=O)O)cc1)C2 (configuration not stated) as well?
## Result 1.24

Hey, just so you know, these numbers are from ChEMBL document CHEMBL1122902.
